Every entry's value here was drawn from patent US20260116991A1.

# target system: murine GPC3-his protein (Sino Biological, Cat. No. 50989-M08B) (murine) (UniProt Q8CFZ4)
# Sequence (Q8CFZ4 25-558 limits assumed): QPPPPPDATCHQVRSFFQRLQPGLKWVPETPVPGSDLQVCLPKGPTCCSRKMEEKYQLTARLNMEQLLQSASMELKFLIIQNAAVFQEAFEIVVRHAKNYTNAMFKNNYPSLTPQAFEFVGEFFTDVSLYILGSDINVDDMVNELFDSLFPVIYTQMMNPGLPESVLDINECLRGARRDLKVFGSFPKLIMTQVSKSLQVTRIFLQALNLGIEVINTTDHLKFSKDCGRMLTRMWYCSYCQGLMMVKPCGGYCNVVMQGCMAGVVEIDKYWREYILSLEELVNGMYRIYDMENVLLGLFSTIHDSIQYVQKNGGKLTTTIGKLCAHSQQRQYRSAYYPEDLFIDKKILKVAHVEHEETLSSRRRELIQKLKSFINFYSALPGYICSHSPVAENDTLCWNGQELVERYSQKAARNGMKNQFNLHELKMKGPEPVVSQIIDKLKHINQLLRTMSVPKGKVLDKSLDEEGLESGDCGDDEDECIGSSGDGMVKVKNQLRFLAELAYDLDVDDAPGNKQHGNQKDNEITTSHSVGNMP
# protocol text: ELISA, coated murine GPC3-His
OD450 at 0.1 nM antibody reference
Record the value in OD450 nm, omitting the unit from your answer.

Examples from the recorded data:
>>> measurement("F1.57.21 human-murine chimeric antibody (antibody, human IgG1, kappa, V domains shown) VH: QVQLQQSGAELARPGASVKLSCKASGYTFTSYGISWVKQITGQGLEWIGEIYPRSESTYYNEKFKGKATLTADKSSSTAYMELRSLTSEDSAVYFCARDYGNIYSFAYWGQGTLVTVSA VL: DIQMTQSPASLSASVGETVTITCRTSENIYSYLAWYQQKQGKSPQLLVYNAKTLAEGVPSRFSGSGSGTQFSLKINSLQPEDFGSYYCQHHYGTPLTFGAGTKLELKR")
0.13
>>> measurement("F1.73.9 human-murine chimeric antibody (antibody, human IgG1, kappa, V domains shown) VH: QVQLKQSGAELVRPGASVKLSCKASGYTFTDYYINWVKQRPGQGLEWIARIYPGSGNTYYNEKFKGKATLTAEKSSSTAYMQFSSLTSEDSAVYFCACSTYYTMDYWGQGTSVTVSS VL: QIVLTQSPAIMSASLGERVTMTCTASSGVSSSYLHWYQQKPGSSPKLWIYTTSNLASGVPARFSGSGSGTSYSLTISSMEAEDAATYYCHQYHRSPYTFGGGTKLEIKR")
0.58
>>> measurement("F1.120.16 human-murine chimeric antibody (antibody, human IgG1, kappa, V domains shown) VH: EFQLQQSGPELVKPGASVKISCKASGYSFTDYNMNWVKQSNGKSLEWIGLIHPKFSVTSYNRKFKGKATLTVDQSSSTAYMQLNSLTSEDSAVYYCARWAGDYFDYWGQGTTLTVSS VL: DIVLTQSPATLSVTPGDSVSLSCRASQSISNNLHWYQQKSHESPRLLIKYASQSISGIPSRFSGSGSGTDFTLTINSVETEDFGMYFCQQSNSWPQTFGGGTKLEIKR")
0.72

Read the next record carefully.
Note to self: OD450 at 0.1 nM antibody recorded for F1.115.8 human-murine chimeric antibody (antibody, human IgG1, kappa, V domains shown) VH: EVQLQQSGPELVKPGASVKMSCKASGYTFTEYYMHWVKQSHGKSLEWIGYIYPNNGGNGYNQKFKGKATLTVDKSSSTAYMGLRSLTSEDSAVYYCVRGYYSNWYFDVWGTGTTVTVSS VL: DVLMTQTPLSLPVSLGDQASISCRSSQSIVHSNGKTYLEWYLQKPGQSPKLLIYKVSNRFSGVPDRFSGSGSGTDFTLKISRVEAEDLGVYYCFQGSHVPFTFGSGTKLEIKR was 0.34
